# Tested on: HSC-39 (Gastric Carcinoma)
# Measurement Description: combination Emax (second highest fraction inhibited in the dose matrix, 72 h); higher = more inhibition; extreme values may be limits of the assay
Recorded Endpoint: combination Emax

So the reported combination Emax for CC(=O)c1c(C)c2cnc(Nc3ccc(N4CCNCC4)cn3)nc2n(C2CCCC2)c1=O [Palbociclib] + CC1(C)CCC(CN2CCN(c3ccc(C(=O)NS(=O)(=O)c4ccc(NCC5CCOCC5)c([N+](=O)[O-])c4)c(Oc4cnc5[nH]ccc5c4)c3)CC2)=C(c2ccc(Cl)cc2)C1 [Venetoclax] (first compound max 10 µM, 7x7, partner max 1 µM) , on HSC-39 (Gastric Carcinoma), turned out to be 0.633

So the reported combination Emax for CN(CCO)CC[C@H](CSc1ccccc1)Nc1ccc(S(=O)(=O)NC(=O)c2ccc(N3CCC([C@@H](O)c4ccccc4-c4ccc(Cl)cc4)CC3)cc2)cc1S(=O)(=O)C(F)(F)F [AZD4320] + Cc1cc2ncnn2cc1Nc1ncc2c(n1)n(C1CCOCC1)c(=O)n2C [AZD7648] (first compound max 1 µM, 7x7, partner max 10 µM) , on HSC-39 (Gastric Carcinoma), turned out to be 0.367

So the reported combination Emax for COc1cc2c(cc1OCCCCCOc1cc3c(cc1OC)C(=O)N1C=C(C)C[C@H]1C=N3)N=C[C@@H]1CC(C)=CN1C2=O [SG3199] + O=C(c1cc(Cc2n[nH]c(=O)c3ccccc23)ccc1F)N1CCN(C(=O)C2CC2)CC1 [Olaparib] (first compound max 0.001 µM, 7x7, partner max 10 µM) , on HSC-39 (Gastric Carcinoma), turned out to be 0.185

---

# Tested on: WM793B (Melanoma)
# Measurement Description: Bliss excess, mean over the matrix (fraction); higher = more synergy
Mark true (1) for reported Bliss excess of 0.01 or greater; mark false (0) for anything smaller.

q: Answer whether Bliss excess of C[C@@H](c1ccc2nccn2c1)n1nnc2ncc(-c3cnn(C)c3)nc21 [Savolitinib] + CC1(C)CCC(CN2CCN(c3ccc(C(=O)NS(=O)(=O)c4ccc(NCC5CCOCC5)c([N+](=O)[O-])c4)c(Oc4cnc5[nH]ccc5c4)c3)CC2)=C(c2ccc(Cl)cc2)C1 [Venetoclax] (first compound max 1 µM, 7x7, partner max 1 µM) is greater than or equal to 0.01.
a: false (0)

q: Answer whether Bliss excess of CN(C)CCCOc1ccc(-c2ccc3ncc4c(c3c2)n(C2CCOCC2)c(=O)n4C)cn1 [AZD0156] + O=C(c1cc(Cc2n[nH]c(=O)c3ccccc23)ccc1F)N1CCN(C(=O)C2CC2)CC1 [Olaparib] (first compound max 3 µM, partner max 3 µM) is greater than or equal to 0.01.
a: true (1)

q: Answer whether Bliss excess of COc1cccc2c1C(=O)c1c(O)c3c(c(O)c1C2=O)C[C@@](O)(C(=O)CO)C[C@@H]3O[C@H]1C[C@H](N)[C@H](O)[C@H](C)O1 [Doxorubicin] + Cc1cc2ncnn2cc1Nc1ncc2c(n1)n(C1CCOCC1)c(=O)n2C [AZD7648] (first compound max 1 µM, 7x7, partner max 10 µM) is greater than or equal to 0.01.
a: true (1)

q: Answer whether Bliss excess of COc1cccc(OCCCN)c1-c1cc(Nc2cnc(C#N)cn2)n[nH]1 [Prexasertib] + O=C(c1cc(Cc2n[nH]c(=O)c3ccccc23)ccc1F)N1CCN(C(=O)C2CC2)CC1 [Olaparib] (first compound max 1 µM, 7x7, partner max 10 µM) is greater than or equal to 0.01.
a: false (0)

q: Answer whether Bliss excess of COc1cccc(OCCCN)c1-c1cc(Nc2cnc(C#N)cn2)n[nH]1 [Prexasertib] + C=CCn1c(=O)c2cnc(Nc3ccc(N4CCN(C)CC4)cc3)nc2n1-c1cccc(C(C)(C)O)n1 [AZD1775] (first compound max 1 µM, partner max 1 µM) is greater than or equal to 0.01.
a: true (1)

q: Answer whether Bliss excess of CC1(C)CCC(CN2CCN(c3ccc(C(=O)NS(=O)(=O)c4ccc(NCC5CCOCC5)c([N+](=O)[O-])c4)c(Oc4cnc5[nH]ccc5c4)c3)CC2)=C(c2ccc(Cl)cc2)C1 [Venetoclax] + COc1cc(Nc2ncc3c(n2)-c2ccc(Cl)cc2C(c2c(F)cccc2OC)=NC3)ccc1C(=O)O [Alisertib] (first compound max 1 µM, 7x7, partner max 10 µM) is greater than or equal to 0.01.
a: false (0)

q: Answer whether Bliss excess of Cc1cc2ncnn2cc1Nc1ncc2c(n1)n(C1CCOCC1)c(=O)n2C [AZD7648] + CCN(CCO)CCCOc1ccc2c(Nc3cc(CC(=O)Nc4cccc(F)c4)[nH]n3)ncnc2c1 [AZD2811] (first compound max 10 µM, 7x7, partner max 1 µM) is greater than or equal to 0.01.
a: false (0)

---

# Test system: SK-MEL-2 (Melanoma)
# Measurement Description: combination Emax (second highest fraction inhibited in the dose matrix, 72 h); higher = more inhibition; extreme values may be limits of the assay
Recorded Endpoint: combination Emax
The answer should be written as a number, with no unit following it.

Recorded result, Cc1c2c(nn1C)CSCc1cc(n(C)n1)CSc1cc(c3ccccc3c1)OCCCc1c(C(=O)O)n(C)c3c-2c(Cl)ccc13 [AZD5991] + CC(=O)O[C@H]1C(=O)[C@@]2(C)[C@H]([C@H](OC(=O)c3ccccc3)[C@]3(O)C[C@H](OC(=O)[C@H](O)[C@@H](NC(=O)c4ccccc4)c4ccccc4)C(C)=C1C3(C)C)[C@]1(OC(C)=O)CO[C@@H]1C[C@@H]2O [Paclitaxel] (first compound max 1 µM, 7x7, partner max 3 µM) , combination Emax: 1

Recorded result, C[C@@H]1COCCN1c1cc(C2([S@](C)(=N)=O)CC2)nc(-c2ccnc3[nH]ccc23)n1 [AZD6738] + C1CC(C1)(C(=O)[O-])C(=O)[O-].N.N.[Pt+2] [Carboplatin] (first compound max 10 µM, 7x7, partner max 10 µM) , combination Emax: 0.201

Recorded result, C=CCn1c(=O)c2cnc(Nc3ccc(N4CCN(C)CC4)cc3)nc2n1-c1cccc(C(C)(C)O)n1 [AZD1775] + CCc1c2c(nc3ccc(O)cc13)-c1cc3c(c(=O)n1C2)COC(=O)[C@]3(O)CC [SN-38] (first compound max 1 µM, partner max 0.3 µM) , combination Emax: 0.619

---

# Tested on: OAW-42 (Ovarian Carcinoma)
# Measurement Description: Bliss excess, mean over the matrix (fraction); higher = more synergy
Could you please report measured Bliss excess for the items listed next?
The answer should be written as a number, with no unit following it.

Recorded result, C[C@@H](c1ccc2nccn2c1)n1nnc2ncc(-c3cnn(C)c3)nc21 [Savolitinib] + Cc1c2c(nn1C)CSCc1cc(n(C)n1)CSc1cc(c3ccccc3c1)OCCCc1c(C(=O)O)n(C)c3c-2c(Cl)ccc13 [AZD5991] (first compound max 1 µM, 7x7, partner max 1 µM) , Bliss excess: -0.0474

Recorded result, Cc1c2c(nn1C)CSCc1cc(n(C)n1)CSc1cc(c3ccccc3c1)OCCCc1c(C(=O)O)n(C)c3c-2c(Cl)ccc13 [AZD5991] + CC1(C)CCC(CN2CCN(c3ccc(C(=O)NS(=O)(=O)c4ccc(NCC5CCOCC5)c([N+](=O)[O-])c4)c(Oc4cnc5[nH]ccc5c4)c3)CC2)=C(c2ccc(Cl)cc2)C1 [Venetoclax] (first compound max 1 µM, 7x7, partner max 1 µM) , Bliss excess: 0.0028

Recorded result, NC1(C(=O)N[C@@H](CCO)c2ccc(Cl)cc2)CCN(c2ncnc3[nH]ccc23)CC1 [Capivasertib] + COc1nnc2ccc(N3CCC(c4ccc(OCCN5CCN(C)C(=O)[C@H]5C)cc4)CC3)nn12 [AZD5153] (first compound max 10 µM, 7x7, partner max 1 µM) , Bliss excess: 0.0972

Recorded result, Cc1c2c(nn1C)CSCc1cc(n(C)n1)CSc1cc(c3ccccc3c1)OCCCc1c(C(=O)O)n(C)c3c-2c(Cl)ccc13 [AZD5991] + C=CCn1c(=O)c2cnc(Nc3ccc(N4CCN(C)CC4)cc3)nc2n1-c1cccc(C(C)(C)O)n1 [AZD1775] (first compound max 1 µM, partner max 1 µM) , Bliss excess: 0.0001

Recorded result, CC1(C)CCC(CN2CCN(c3ccc(C(=O)NS(=O)(=O)c4ccc(NCC5CCOCC5)c([N+](=O)[O-])c4)c(Oc4cnc5[nH]ccc5c4)c3)CC2)=C(c2ccc(Cl)cc2)C1 [Venetoclax] + C=CCn1c(=O)c2cnc(Nc3ccc(N4CCN(C)CC4)cc3)nc2n1-c1cccc(C(C)(C)O)n1 [AZD1775] (first compound max 1 µM, partner max 1 µM) , Bliss excess: -0.0283

Recorded result, CS(=O)(=O)CCNCc1ccc(-c2ccc3ncnc(Nc4ccc(OCc5cccc(F)c5)c(Cl)c4)c3c2)o1 [Lapatinib] + NC1(c2ccc(-c3nc4ccn5c(=O)[nH]nc5c4cc3-c3ccccc3)cc2)CCC1 [MK-2206] (first compound max 10 µM, 7x7, partner max 10 µM) , Bliss excess: -0.0089

Recorded result, NC1(C(=O)N[C@@H](CCO)c2ccc(Cl)cc2)CCN(c2ncnc3[nH]ccc23)CC1 [Capivasertib] + C[C@@H]1COCCN1C2=NC(=NC(=C2)C3(CC3)[S@](=N)(=O)C)C4=C5C=CNC5=NC=C4 [AZD6738] (first compound max 10 µM, 7x7, partner max 10 µM) , Bliss excess: 0.0034
